Across several studies, compounds have been characterized by their IC50 on BTK (Homo sapiens); a selection follows.
Sequence (Q06187 whole entry): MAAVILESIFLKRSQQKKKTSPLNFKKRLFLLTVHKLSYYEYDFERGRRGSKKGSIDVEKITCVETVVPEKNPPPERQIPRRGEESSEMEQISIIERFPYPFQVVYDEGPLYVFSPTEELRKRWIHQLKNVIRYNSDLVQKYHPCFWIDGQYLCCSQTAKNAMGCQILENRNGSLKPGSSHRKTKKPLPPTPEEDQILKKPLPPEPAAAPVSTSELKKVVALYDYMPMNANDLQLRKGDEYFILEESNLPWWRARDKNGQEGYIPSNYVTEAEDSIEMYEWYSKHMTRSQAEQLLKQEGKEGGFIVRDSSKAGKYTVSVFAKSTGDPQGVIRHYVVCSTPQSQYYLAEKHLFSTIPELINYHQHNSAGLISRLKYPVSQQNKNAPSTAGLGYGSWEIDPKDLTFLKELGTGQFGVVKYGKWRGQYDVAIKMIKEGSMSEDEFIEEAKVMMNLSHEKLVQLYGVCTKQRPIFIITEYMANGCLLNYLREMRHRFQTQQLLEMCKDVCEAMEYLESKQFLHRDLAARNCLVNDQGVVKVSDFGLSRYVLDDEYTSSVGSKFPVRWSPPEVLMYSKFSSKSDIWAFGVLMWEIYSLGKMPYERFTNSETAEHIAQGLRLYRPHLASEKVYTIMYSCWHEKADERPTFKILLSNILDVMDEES

These recorded examples may help you get a feel for the data.
{"COMPOUND": "Cc1cnc(-c2ccc(-c3ccc(NC(=O)Nc4c(F)c(F)c(F)c(F)c4F)cc3F)c3c2C(=O)NC3)[nH]1", "IC50": "0.4 nM"}
{"COMPOUND": "O=C(CNc1cc(F)cc(F)c1)NC1CCCN(c2ncnc3[nH]ccc23)C1 (stereo not shown)", "IC50": "< 100 nM"}
{"COMPOUND": "C=CC(=O)Nc1cccc(Oc2nc(Nc3ccc(N4CCN(C)CC4)c([N+](=O)[O-])c3)nc3[nH]ccc23)c1", "IC50": "43 nM"}
{"COMPOUND": "COc1ncc(-c2cnc3[nH]cc(C(=O)c4c(F)ccc(NS(=O)(=O)c5cccc(F)c5)c4F)c3c2)cn1", "IC50": "≤ 10000 nM"}
{"COMPOUND": "C=CC(=O)N1CCC(c2ccc(C#N)c(-c3ccc(Oc4ccccc4)cc3)n2)CC1", "IC50": "500 to 1000 nM"}

-- ask # lookup: IC50 of `C=CC(=O)N1CC[C@]2(C1)C[C@H](n1c(NC(=O)c3ccc(OC)nc3)nc3cc(CN[C@@H](C)C(C)(C)C)ccc31)C2`
-- reply 5.45 nM

-- ask # lookup: IC50 of `C=CC(=O)Nc1cccc(-c2cc(-c3cccnc3)cc3cnc(Nc4ccccc4)nc23)c1`
-- reply < 100 nM

-- ask # lookup: IC50 of C=CC(=O)N1CCCC(n2c(=O)n(-c3ccc(-c4noc(C=C)n4)cc3)c3c(N)ncnc32)C1 (stereo not shown)
-- reply 176 nM

-- ask # lookup: IC50 of Cc1cc(-c2ccnc(N)n2)ccc1CNC(=O)C1CC2CNCC2C1 (stereo not shown)
-- reply 1000 to 10000 nM

-- ask # lookup: IC50 of O=C(CNc1cccc2[nH]ncc12)NC1CCCN(c2ncnc3[nH]ccc23)C1 (stereo not shown)
-- reply 100 to 999 nM

-- ask # lookup: IC50 of `O=C(NCc1ncc(-c2ccnc3[nH]ncc23)cc1F)c1cc2c(s1)CCCC2`
-- reply 10 to 99 nM

-- ask # lookup: IC50 of `Cc1cc[nH]c(=O)c1-c1ccc2nc(Nc3cccc(NC(=O)/C=C/CN4CCCCC4)c3)ncc2c1`
-- reply < 100 nM

-- ask # lookup: IC50 of `CC(C)(Nc1ccccc1)C(=O)N[C@@H]1CCCN(c2ncnc3[nH]ccc23)C1`
-- reply 1000 to 10000 nM

-- ask # lookup: IC50 of `COc1ncc(-c2cnc3[nH]cc(C(=O)c4c(F)ccc(NS(=O)(=O)N5CCOCC5)c4F)c3c2)cn1`
-- reply ≤ 10000 nM

-- ask # lookup: IC50 of `CC(C)CN(CC(C)C)S(=O)(=O)c1ccccc1NCC(=O)N1CCC[C@H](Nc2ncnc3[nH]ccc23)C1`
-- reply > 10000 nM

-- ask # lookup: IC50 of `NC(=O)c1nnc2c(-c3ccc4nc(-c5ccccc5)[nH]c4c3)cccc2c1N`
-- reply 79.4 nM
